- Test system: Zea mays (ZEAMX)
- Run Description: Post-emergence crop plant compatibility, greenhouse pot test
- Assay type: in vivo
- Test Context: Zea mays, in vivo
- Method: Seeds of monocotyledonous and dicotyledonous weeds and crop plants were placed in sandy loam in plastic or wood-fibre pots, covered with soil and cultivated in a greenhouse under controlled growth conditions. 2 to 3 weeks after sowing, the test plants were treated at the one-leaf stage. […]
Experimental Endpoint: Post-emergence effect at 1.25 g/ha against ZEAMX in % (%)
Give the quantity in %, number only.

Cn1c(C(F)(F)F)cc(=O)n(-c2cc(Oc3ccccc3OCC(=O)OCC3CC3)c(Br)cc2F)c1=O	0
Cn1c(C(F)(F)F)cc(=O)n(-c2cc(Oc3ccccc3OCC(=O)OCC3CC34CC4)c(Cl)cc2F)c1=O (centres unmarked)	20
Cn1c(C(F)(F)F)cc(=O)n(-c2cc(Oc3ccccc3OCC(=O)OCC3CC3)c(C#N)cc2F)c1=O	10

Lookup: Post-emergence effect at 1.25 g/ha against ZEAMX in % lookup needed for `Cn1c(C(F)(F)F)cc(=O)n(-c2cc(Oc3ccccc3OCC(=O)OCC3CCCC3)c(Cl)cc2F)c1=O` , thanks.
Found: 10

Lookup: # Post-emergence effect at 1.25 g/ha against ZEAMX in % lookup, item `Cn1c(C(F)(F)F)cc(=O)n(-c2cc(Oc3ccccc3OCC(=O)OCC3CCCCCC3)c(Cl)cc2F)c1=O`
Found: 20

----------
- Test system: Pharbitis purpurea (PHBPU)
- Run Description: Post-emergence herbicidal action, greenhouse pot test
- Format: in vivo
- Test Context: 1.25 g/ha
- Procedure: Seeds of monocotyledonous and dicotyledonous weeds and crop plants were placed in sandy loam in plastic or wood-fibre pots, covered with soil and cultivated in a greenhouse under controlled growth conditions. 2 to 3 weeks after sowing, the test plants were treated at the one-leaf stage. […]
# maps each entry to its Post-emergence effect at 1.25 g/ha against PHBPU in %
Response body: numeric value in %, unit text excluded.

Cn1c(C(F)(F)F)cc(=O)n(-c2cc(Oc3ccccc3OCC(=O)OCC3CC3(F)F)c(Cl)cc2F)c1=O (centres unmarked)	80
Cn1c(C(F)(F)F)cc(=O)n(-c2cc(Oc3ccccc3OCC(=O)OCC3CCCC3)c(Cl)cc2F)c1=O	80
Cn1c(C(F)(F)F)cc(=O)n(-c2cc(Oc3ccccc3OCC(=O)OCC3(C)CC3)c(Cl)cc2F)c1=O	100
Cn1c(C(F)(F)F)cc(=O)n(-c2cc(Oc3ccccc3OCC(=O)OC(C#N)C3CC3)c(Cl)cc2F)c1=O (centres unmarked)	80

Could you now look at the following compound, please?
Lookup: // lookup Post-emergence effect at 1.25 g/ha against PHBPU in % | system=Pharbitis purpurea (PHBPU) | key= `Cn1c(C(F)(F)F)cc(=O)n(-c2cc(Oc3cc(F)ccc3OCC(=O)OCC3CC3)c(Br)cc2F)c1=O`
Found: 80

----------
Here the recorded pest or weed control at 5 g/ha is given for each entry.
- System: Pharbitis purpurea (PHBPU)
- Run Description: Post-emergence herbicidal action, greenhouse pot test
- Format: in vivo
- Test Context: Ipomoea purpurea, 504 h, 5 g/ha, read-out: Post-emergence effect at 5 g/ha against PHBPU in %
Give your result in % as a bare value.

Before answering, review these 3 worked examples.
Cn1c(C(F)(F)F)cc(=O)n(-c2cc(Oc3ccccc3OCC(=O)OCC3CC34CC4)c(Cl)cc2F)c1=O (stereo not shown)	100
Cn1c(C(F)(F)F)cc(=O)n(-c2cc(Oc3ccccc3OCC(=O)OCC3CCCCCC3)c(Cl)cc2F)c1=O	100
Cn1c(C(F)(F)F)cc(=O)n(-c2cc(Oc3ccccc3OCC(=O)OCC3CC3)c(C#N)cc2F)c1=O	100

# input for lookup
Lookup: I'd like to know its pest or weed control at 5 g/ha. The molecule in question is `Cn1c(C(F)(F)F)cc(=O)n(-c2cc(Oc3ccccc3OCC(=O)OCC3CCCCC3)c(Cl)cc2F)c1=O`
Found: 100
